B1: library; numbered along this chain (parent)
chain: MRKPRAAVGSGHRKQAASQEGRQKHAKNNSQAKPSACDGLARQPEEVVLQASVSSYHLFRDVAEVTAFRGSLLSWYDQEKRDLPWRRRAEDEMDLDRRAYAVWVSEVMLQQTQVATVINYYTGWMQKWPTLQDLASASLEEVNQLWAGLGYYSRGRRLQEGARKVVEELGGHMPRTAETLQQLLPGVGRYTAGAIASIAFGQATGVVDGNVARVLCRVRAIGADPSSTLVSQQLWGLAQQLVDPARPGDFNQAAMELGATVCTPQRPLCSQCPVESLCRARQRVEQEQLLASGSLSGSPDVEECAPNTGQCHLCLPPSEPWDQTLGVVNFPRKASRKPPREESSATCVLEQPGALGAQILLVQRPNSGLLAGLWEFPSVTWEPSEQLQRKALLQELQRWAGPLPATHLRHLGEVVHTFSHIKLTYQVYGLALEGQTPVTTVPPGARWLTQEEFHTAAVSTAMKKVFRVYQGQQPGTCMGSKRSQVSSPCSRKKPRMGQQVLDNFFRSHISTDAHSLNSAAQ

Variants of: B1
assay.protocol: 8OG:A repair function score (normalized; synonymous = 0, nonsense = -1) (normalized log-likelihood score); higher = more repair activity (WT-like);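 also: cells sorted at 72 h after reporter transfection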
stated.conditions: with 8OG:A DNA repair reporter (GFP) in HEK-293 MUTYH KO cells
Hi there, I'd appreciate the recorded 8OG:A repair function score for every entry that follows.
One number for each entry.

T346E = -1.03
R279K = -0.0521
T439E = 0.0225
R482W = 0.0248
E141Y = -0.924
H454Y = -0.087
R340K = -0.0186
N143I = -0.0751
Q484P = 0.0115
P273I = -0.662

Kindly give each listed record's 8OG:A repair function score.
1. V441L
2. K422M
3. L215A
4. L158T

-0.0169
-0.42
-0.788
-0.756

Kindly give each listed record's 8OG:A repair function score.
1. L448M
2. S52C
3. R398D
4. A135V
5. Y100Q
6. L109T

0.207
-0.0302
-0.249
-0.0536
-1.23
-0.266

Kindly give each listed record's 8OG:A repair function score.
1. T460N
2. A513R

1: -0.00346; 2: 0.00911
